assay.target: NK1 (Homo sapiens, UniProt P25103)
Sequence (P25103 whole entry): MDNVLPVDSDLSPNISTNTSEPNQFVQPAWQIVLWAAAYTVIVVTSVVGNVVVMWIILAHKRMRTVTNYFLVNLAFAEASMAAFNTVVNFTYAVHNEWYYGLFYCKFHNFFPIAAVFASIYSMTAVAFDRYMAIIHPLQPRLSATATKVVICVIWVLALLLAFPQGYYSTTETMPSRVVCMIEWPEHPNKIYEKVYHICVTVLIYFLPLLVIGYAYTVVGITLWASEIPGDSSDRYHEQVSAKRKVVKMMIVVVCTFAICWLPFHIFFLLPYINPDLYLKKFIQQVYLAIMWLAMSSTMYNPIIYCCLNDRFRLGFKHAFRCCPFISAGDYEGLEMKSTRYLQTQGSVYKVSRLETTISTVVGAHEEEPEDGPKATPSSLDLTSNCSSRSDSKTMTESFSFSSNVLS
assay.details: Signal transduction (ST), intracellular Ca++ (FLIPR), NK1 antagonism
Type: cell-based
condition.parameters: read-out: pIC50 NK1 (converted)
measured.parameter: IC50 (µM)

// known answers, use as guide
O=C(c1cc(C(F)(F)F)cc(C(F)(F)F)c1)N1CCC(N2CCN(C3CCCN(S(=O)(=O)Cc4ccccc4)C3)CC2)CC1Cc1ccccc1 (centres unmarked) [Compound 49]    0.0158
CC(=O)N1CCC[C@H]1C(=O)N1CCCC(N2CCN([C@H]3CCN(C(=O)c4cc(C(F)(F)F)cc(C(F)(F)F)c4)[C@H](Cc4ccccc4)C3)CC2)C1 (some centres unmarked) [Compound 60]    0.00501
O=C(c1ccccc1)N1CCCC(N2CCN([C@H]3CCN(C(=O)c4cc(C(F)(F)F)cc(C(F)(F)F)c4)[C@H](Cc4ccccc4)C3)CC2)C1 (some centres unmarked) [Compound 8]    0.02
O=C(c1ccc(O)cc1)N1CCCC(N2CCN(C3CCN(C(=O)c4cc(C(F)(F)F)cc(C(F)(F)F)c4)C(Cc4ccccc4)C3)CC2)C1 (centres unmarked) [Compound 67]    0.00631
O=C(c1cc(C(F)(F)F)cc(C(F)(F)F)c1)N1CC[C@H](N2CCN(C3CCCN(C(=O)n4ccnc4)C3)CC2)C[C@H]1Cc1ccccc1 (some centres unmarked) [Compound 21]    0.02
Cc1nc(S(=O)(=O)N2CCCC(N3CCN([C@H]4CCN(C(=O)c5cc(C(F)(F)F)cc(C(F)(F)F)c5)[C@H](Cc5ccccc5)C4)CC3)C2)cn1C (some centres unmarked) [Compound 32]    0.00501
Cn1cnc(C(=O)N2CCCC(N3CCN([C@H]4CCN(C(=O)c5cc(C(F)(F)F)cc(C(F)(F)F)c5)[C@H](Cc5ccccc5)C4)CC3)C2)c1 (some centres unmarked) [Compound 63]    0.00501
O=C(C(=O)N1CCCC(N2CCN(C3CCN(C(=O)c4cc(C(F)(F)F)cc(C(F)(F)F)c4)C(Cc4ccccc4)C3)CC2)C1)c1ccco1 (centres unmarked) [Compound 24]    0.0251
CC1(C(=O)N2CCCC(N3CCN([C@H]4CCN(C(=O)c5cc(C(F)(F)F)cc(C(F)(F)F)c5)[C@H](Cc5ccccc5)C4)CC3)C2)CC1 (some centres unmarked) [Compound 14]    0.0126
O=C(c1cc(C(F)(F)F)cc(C(F)(F)F)c1)N1CC[C@H](N2CCN(C3CCCN(S(=O)(=O)c4ccc(CO)s4)C3)CC2)C[C@H]1Cc1ccccc1 (some centres unmarked) [Compound 92]    0.0126

A: Cc1cc(C)cc(C(=O)N2CCCC(N3CCN(C4CCN(C(=O)c5cc(C(F)(F)F)cc(C(F)(F)F)c5)C(Cc5ccccc5)C4)CC3)C2)c1 (centres unmarked) [Compound 3]
B: CC(C)N/C(=N\C#N)N1CCCC(N2CCN(C3CCN(C(=O)c4cc(C(F)(F)F)cc(C(F)(F)F)c4)C(Cc4ccccc4)C3)CC2)C1 (centres unmarked) [Compound 91]
C: CC(C(=O)N1CCCC(N2CCN([C@H]3CCN(C(=O)c4cc(C(F)(F)F)cc(C(F)(F)F)c4)[C@H](Cc4ccccc4)C3)CC2)C1)c1ccccc1 (some centres unmarked) [Compound 48]
Write the entries in order, lowest recorded IC50 first. Write out the labels following the order that was asked for.
B, C, A
